Ref: the supplement of paper PMC10567573

# protein stability index per record follows
B1: KCNA1 (parent)
chain: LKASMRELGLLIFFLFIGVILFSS

Variants of: B1
Assay: protein stability index of a GFP-peptide fusion (GPS, HEK-293T) (PSI 1-6); higher = more stable;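 also: lentivirally expressed fusions sorted by FACS into six bins by GFP to DsRed ratio, PSI derived from sequencing read proportions per bin multiplied by bin number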
Conditions: c terminus: a fixed tail appended

mutant: V19M
protein stability index: 2.52

Prompt line: Name the recorded protein stability index of the item L10D in your answer.
Response line: 3.28

Prompt line: For the variant S24E , give its measured protein stability index value.
Response line: 2.02

Prompt line: Name the recorded protein stability index of the variant listed here: R6G
Response line: 2.63

Prompt line: Identify measured protein stability index associated with M5P
Response line: 3.22

Prompt line: Retrieve protein stability index measured for S23R and print it.
Response line: 3.62

Prompt line: Supply measured protein stability index of E7V in your reply.
Response line: 1.99

Prompt line: Give the reported value of protein stability index for this record: I12N
Response line: 3.05

Prompt line: Hello, please tell me recorded protein stability index for this one: I12S
Response line: 1.31

Prompt line: # return recorded protein stability index for entry E7N
Response line: 1.55

Prompt line: Recall and state the measured protein stability index for I12Q .
Response line: 2.17
